Data origin, for the record: patent US7811816B2

- Subject Of Test: D^b class I molecules (Mus musculus)
- Construct: Antigen-transporting deficient (TAP^−) RMAS cells (H-2^b); endogenous in cells; host or cells: RMA-S (TAP 2 deficient, H-2^b)
- Sequence (P01899 25-362): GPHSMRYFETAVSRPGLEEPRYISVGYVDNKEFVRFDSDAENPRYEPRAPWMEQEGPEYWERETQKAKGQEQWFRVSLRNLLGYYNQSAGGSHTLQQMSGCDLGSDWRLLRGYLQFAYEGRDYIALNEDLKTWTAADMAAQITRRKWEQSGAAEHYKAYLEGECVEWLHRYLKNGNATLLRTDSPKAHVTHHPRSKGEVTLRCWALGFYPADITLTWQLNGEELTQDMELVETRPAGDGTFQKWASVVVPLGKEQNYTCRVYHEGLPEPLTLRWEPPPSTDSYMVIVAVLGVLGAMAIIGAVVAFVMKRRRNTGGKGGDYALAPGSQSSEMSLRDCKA
- Sequence (P01887 21-119 partner): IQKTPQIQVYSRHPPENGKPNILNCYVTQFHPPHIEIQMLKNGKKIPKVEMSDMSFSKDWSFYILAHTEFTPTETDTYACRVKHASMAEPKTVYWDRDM
- Method Description: MHC class I stabilization assay on TAP- RMAS cells (H-2^b), flow cytometry
- Format: binding
- Experimental Context: MHC class I stabilization assay, RMAS cells
Observation Type: Binding to / stabilization of D^b, in words

| Polymer Sequence | Result |
| --- | --- |
| GHILNDVSV (Peptide antigen) [IgE 125] | weakly |
| TASMTLGCL (Peptide antigen) [IgE 16] | weakly |
